# Tested on: EPHB3
# cond: concentration: 1 μM,replicates: in singlicate; n = 1;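 also: KINOMEscan kinase panel screen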
assay_metric: %Inh (%)
One number for each entry, in %.

Worked set:
>>> df
                                   molecule  units_label  reported
0  Cl.Cl.Nc1nc(-c2ccc3c(N)n[nH]c3c2)cc(N2CCCC(NC(=O)c3ccccc3)C2)n1 (stereo not shown)            %        11
1  Cl.Cl.NC[C@H](CC1CCCCC1)NC(=O)c1cc(Br)c(-c2ccnc3[nH]ccc23)s1            %         5
2  Nc1nc(Nc2ccccc2)cc(-c2ccc3c(N)n[nH]c3c2)n1            %         0
3  CN(C)CCOc1ccc(-c2cc(-c3c[nH]nc3-c3ccccn3)ccn2)cc1            %        59
4  O=C(NCCNc1ccnc(NCc2ccc(F)cc2)n1)c1cc2ccccc2s1            %        27
5  CCn1c(-c2nonc2N)nc2c(C#CC(C)(C)O)nc(OCCN)cc21.Cl.Cl            %        11
6  C=CC(=O)Nc1cc2c(Nc3ccc(F)c(Cl)c3)ncnc2cc1OCCCN1CCOCC1            %         0
7  Cc1n[nH]c2ccc(-c3cc(OC[C@@H](N)Cc4ccccc4)cnc3-c3ccoc3)cc12.O=C(O)C(F)(F)F.O=C(O)C(F)(F)F            %        14
8  CC(C)N1C(=O)Cc2cc(Nc3ncc(C(F)(F)F)c(NCc4cccc(S(C)(=O)=O)c4)n3)ccc21            %         0
9  COc1ccc(C[C@@H](CN)NC(=O)c2cc(Br)c(-c3ccnc4[nH]ccc34)s2)cc1.Cl.Cl            %        31

Report %Inh for every entry below.
1. CCN(CC)CCCCNc1ncc2cc(-c3c(Cl)cccc3Cl)c(NC(=O)NC(C)(C)C)nc2n1
2. NC(=O)c1cc(-c2ccccc2)cc2c(C3CCNCC3)c[nH]c12
3. C[C@@H](Oc1cc(-c2cnn(C3CCNCC3)c2)cnc1N)c1c(Cl)ccc(F)c1Cl

Result:
26
15
16

====

# Tested on: CDC2L1
# Construct: gene CDK11B
# cond: concentration: 1 μM,replicates: in singlicate; n = 1
Please go through the items and note down their %Inh.
Numbers only, in %.

Report %Inh for every entry below.
1. Cl.Cl.NC[C@H](Cc1ccc(C(F)(F)F)cc1)NC(=O)c1cc(Br)c(-c2ccnc3[nH]ccc23)s1 [GSK1487252]
2. Cc1n[nH]c2ccc(-c3cc(OC[C@@H](N)Cc4ccccc4)cnc3-c3ccoc3)cc12.O=C(O)C(F)(F)F.O=C(O)C(F)(F)F [GSK507358]
3. COc1ccc(C[C@@H](CN)NC(=O)c2cc(Br)c(-c3ccnc4[nH]ccc34)s2)cc1.Cl.Cl [GSK1389063]
4. Cl.Cl.Nc1nc(-c2ccc3c(N)n[nH]c3c2)cc(N2CCCC(NC(=O)c3ccccc3)C2)n1 (centres unmarked) [GSK2286775]
5. CC(C)N1C(=O)Cc2cc(Nc3ncc(C(F)(F)F)c(NCc4cccc(S(C)(=O)=O)c4)n3)ccc21

Result:
[0, 0, 0, 0, 0]

Report %Inh for every entry below.
1. O=C(NCCCN1CCOC1=O)c1cnc(NCc2cc(Cl)ccc2Cl)nc1NC1CCCC1
2. NC(=O)c1cc(-c2ccccc2)cc2c(C3CCNCC3)c[nH]c12 [GSK301362]

Result:
1
0

Q: Lab request: please report %Inh under test system CDC2L1 for CN(C)CCOc1ccc(-c2cc(-c3c[nH]nc3-c3ccccn3)ccn2)cc1 [GW835314]
Result: 2
